Below, each entry is listed with its recorded viability, T/C.
# Test system: HOP-62 complex spheroids with HUVEC/MSC, viability
# TEST_METHOD_NOTES: Anticancer human tumor HOP-62 cell line growth inhibition [RAS];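 also: spheroids exposed to agents for seven days before readout; 100% = DMSO vehicle control viability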
# EXPERIMENTAL_CONDITIONS: second compound 0.0949 µM; first compound 0.0316 µM; hits give low values
PARAMETER: viability, T/C (%)

{"columns": ["MOLECULE", "READOUT_VALUE"],
 "data": [
  ["CCN1CCN(Cc2ccc(Nc3ncc(F)c(-c4cc(F)c5nc(C)n(C(C)C)c5c4)n3)nc2)CC1 + CCn1c(-c2cc(N3CCN(C)CC3)cnc2C(C)OC)c2c3cc(ccc31)-c1csc(n1)CC(NC(=O)C1CC1C)C(=O)N1CCCC(N1)C(=O)OCC(C)(C)C2", 39.2],
  ["Nc1ccn(C2OC(CO)C(O)C2(F)F)c(=O)n1 (stereo not drawn) + CCn1c(-c2cccnc2C(C)OC)c2c3cc(ccc31)N1CCOC(CC(NC(=O)C(C(C)C)N(C)C(=O)C3(F)CCN(C(=O)C#CC(C)(C)N(C)C)CC3)C(=O)N3CCCC(N3)C(=O)OCC(C)(C)C2)C1", 21.7],
  ["CC(C)NCC(C(=O)N1CCN(c2ncnc3c2C(C)CC3O)CC1)c1ccc(Cl)cc1 (stereo not drawn) + CCn1c(-c2cccnc2C(C)OC)c2c3cc(ccc31)N1CCOC(CC(NC(=O)C(C(C)C)N(C)C(=O)C3(F)CCN(C(=O)C#CC(C)(C)N(C)C)CC3)C(=O)N3CCCC(N3)C(=O)OCC(C)(C)C2)C1", 79],
  ["Nc1ccn(C2OC(CO)C(O)C2(F)F)c(=O)n1 (stereo not drawn) + CCn1c(-c2cc(N3CCN(C)CC3)cnc2C(C)OC)c2c3cc(ccc31)-c1csc(n1)CC(NC(=O)C1CC1C)C(=O)N1CCCC(N1)C(=O)OCC(C)(C)C2", 35.6],
  ["NC1c2ccccc2OC12CCN(c1cnc3c(N4CCCc5ncccc54)n[nH]c3n1)CC2 (stereo not drawn) + CCn1c(-c2cccnc2C(C)OC)c2c3cc(ccc31)N1CCOC(CC(NC(=O)C(C(C)C)N(C)C(=O)C3(F)CCN(C(=O)C#CC(C)(C)N(C)C)CC3)C(=O)N3CCCC(N3)C(=O)OCC(C)(C)C2)C1", 53.3],
  ["CC1(O)CCCC1n1c(=O)c(C(F)F)cc2cnc(NC3CCN(S(C)(=O)=O)CC3)nc21 (stereo not drawn) + CCn1c(-c2cccnc2C(C)OC)c2c3cc(ccc31)N1CCOC(CC(NC(=O)C(C(C)C)N(C)C(=O)C3(F)CCN(C(=O)C#CC(C)(C)N(C)C)CC3)C(=O)N3CCCC(N3)C(=O)OCC(C)(C)C2)C1", 80.6],
  ["NC1c2ccccc2OC12CCN(c1cnc3c(N4CCCc5ncccc54)n[nH]c3n1)CC2 (stereo not drawn) + CCn1c(-c2cc(N3CCN(C)CC3)cnc2C(C)OC)c2c3cc(ccc31)-c1csc(n1)CC(NC(=O)C1CC1C)C(=O)N1CCCC(N1)C(=O)OCC(C)(C)C2", 30.5],
  ["C[C@@H](NC(=O)c1ncnc(N)c1Cl)c1ncc(C(=O)Nc2cc(C(F)(F)F)c(Cl)cn2)s1 + CCn1c(-c2cc(N3CCN(C)CC3)cnc2C(C)OC)c2c3cc(ccc31)-c1csc(n1)CC(NC(=O)C1CC1C)C(=O)N1CCCC(N1)C(=O)OCC(C)(C)C2", 46.9]
]}
